variants and their reported protein stability index
B1: RAB40B (parent)
chain: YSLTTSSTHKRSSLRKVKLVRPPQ

- Variants of: B1
- experimentDescription: protein stability index of a GFP-peptide fusion (GPS, HEK-293T) (PSI 1-6); higher = more stable;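 further: lentivirally expressed fusions sorted by FACS into six bins by GFP to DsRed ratio, PSI derived from sequencing read proportions per bin multiplied by bin number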
- condition: c terminus: a fixed tail appended
quantityMeasured: protein stability index

>>> readoutvalue("S2N")
2.96
>>> readoutvalue("K16Q")
3.08
>>> readoutvalue("V20C")
3.25
>>> readoutvalue("S12M")
2.63
>>> readoutvalue("L3W")
2.02
>>> readoutvalue("V17H")
3.55
>>> readoutvalue("S13G")
2.86
>>> readoutvalue("R21I")
2.52
>>> readoutvalue("L14M")
2.64
>>> readoutvalue("V17Y")
2.98
>>> readoutvalue("L14A")
3.68
>>> readoutvalue("S6K")
3.33
>>> readoutvalue("R15L")
2.44
>>> readoutvalue("K18S")
3.06
>>> readoutvalue("L14N")
3.77
>>> readoutvalue("R21G")
3.62
>>> readoutvalue("S2W")
1.64
>>> readoutvalue("P22G")
2.44
>>> readoutvalue("K18H")
3.71
>>> readoutvalue("Q24E")
3.06
>>> readoutvalue("V17A")
3.28
>>> readoutvalue("P23S")
3.25
